Consider the following compounds and their measured inhibition at 10 µM readings.
biological target: Skp2 (Homo sapiens, UniProt Q13309); test: Selectivity assay vs other E3s: Skp2; format: biochemical; conditions: read-out: % Inhibition Skp2 @ 10 μM
Sequence (Q13309 whole entry, species assumed): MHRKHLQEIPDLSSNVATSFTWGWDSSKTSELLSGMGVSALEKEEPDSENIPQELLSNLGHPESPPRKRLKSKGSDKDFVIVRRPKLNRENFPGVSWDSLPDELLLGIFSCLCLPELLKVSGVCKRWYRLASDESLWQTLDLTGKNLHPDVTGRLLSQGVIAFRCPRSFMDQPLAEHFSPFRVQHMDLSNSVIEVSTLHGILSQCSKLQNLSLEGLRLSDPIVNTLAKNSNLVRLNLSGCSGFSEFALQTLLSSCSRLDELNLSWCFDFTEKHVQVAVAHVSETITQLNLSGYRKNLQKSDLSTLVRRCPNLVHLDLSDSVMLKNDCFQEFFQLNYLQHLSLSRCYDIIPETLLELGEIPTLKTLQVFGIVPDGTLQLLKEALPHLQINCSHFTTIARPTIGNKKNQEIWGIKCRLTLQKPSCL
Sequence (P63208 whole entry partner, species assumed): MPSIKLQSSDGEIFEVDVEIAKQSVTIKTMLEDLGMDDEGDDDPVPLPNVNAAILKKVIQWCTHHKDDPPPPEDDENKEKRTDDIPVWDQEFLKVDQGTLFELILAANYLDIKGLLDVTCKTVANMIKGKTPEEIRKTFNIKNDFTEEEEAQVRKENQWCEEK
Sequence (Q13616 whole entry partner, species assumed): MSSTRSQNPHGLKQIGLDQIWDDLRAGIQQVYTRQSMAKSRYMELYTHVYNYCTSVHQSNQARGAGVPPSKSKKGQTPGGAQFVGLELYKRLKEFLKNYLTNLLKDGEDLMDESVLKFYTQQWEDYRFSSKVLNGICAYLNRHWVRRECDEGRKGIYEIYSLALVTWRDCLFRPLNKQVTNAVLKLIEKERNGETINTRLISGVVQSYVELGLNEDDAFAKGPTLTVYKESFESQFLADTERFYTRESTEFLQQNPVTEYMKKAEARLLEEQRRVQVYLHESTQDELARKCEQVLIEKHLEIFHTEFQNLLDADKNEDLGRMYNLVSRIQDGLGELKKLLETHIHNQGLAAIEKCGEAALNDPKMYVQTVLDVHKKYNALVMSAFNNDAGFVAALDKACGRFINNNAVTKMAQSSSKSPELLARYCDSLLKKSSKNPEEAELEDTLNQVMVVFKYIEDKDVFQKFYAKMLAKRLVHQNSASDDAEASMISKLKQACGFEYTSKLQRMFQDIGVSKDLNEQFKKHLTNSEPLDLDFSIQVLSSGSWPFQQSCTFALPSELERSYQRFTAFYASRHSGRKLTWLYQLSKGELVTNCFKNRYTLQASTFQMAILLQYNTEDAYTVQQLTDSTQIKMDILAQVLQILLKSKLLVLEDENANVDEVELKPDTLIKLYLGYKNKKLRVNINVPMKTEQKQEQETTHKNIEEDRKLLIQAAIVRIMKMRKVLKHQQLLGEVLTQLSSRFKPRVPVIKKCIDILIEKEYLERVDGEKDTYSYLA
Sequence (P62877 whole entry partner, species assumed): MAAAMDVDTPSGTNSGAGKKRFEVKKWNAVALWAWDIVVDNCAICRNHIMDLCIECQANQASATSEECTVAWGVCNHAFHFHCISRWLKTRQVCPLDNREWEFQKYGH
Non-standard residues stand in square brackets, D forms with d. Residues, ends and D or L forms follow the SMILES beside them. *: point of attachment. Phe(3-F) = N[C@@H](Cc1cccc(F)c1)C(=O)O; Tos = Cc1ccc(S(=O)(=O)*)cc1; Moc = COC(=O)*
Express it in %; write the number only.

{"columns": ["compound", "system", "inhibition at 10 µM, %"],
 "data": [
  ["COC(=O)N[C@H](CC(=O)O)C(=O)N[C@@H](CCC(=O)O)C(=O)NCC(=O)N[C@@H](Cc1cccc(F)c1)C(=O)N[C@@H](Cc1c[nH]c2ccccc12)C(=O)N[C@@H](CCC(=O)O)C(N)=O [UBP020, MeO(CO)-dEGF(3F)WE-NH2] (Moc-[dD]EG[Phe(3-F)]WE-NH2)", "Skp2 (Homo sapiens, UniProt Q13309)", 0]
]}

Kindly consider the entry below.
Just so you know, measured inhibition at 10 µM for Cc1ccc(S(=O)(=O)N[C@H](CC(=O)O)C(=O)N[C@@H](CCC(=O)O)C(=O)NCC(=O)N[C@@H](Cc2cccc(F)c2)C(=O)N[C@@H](Cc2c[nH]c3ccccc23)C(=O)N[C@@H](CCC(=O)O)C(N)=O)cc1 [Ts-dEGF(3F)WE-NH2] (Tos-[dD]EG[Phe(3-F)]WE-NH2) came out at 19
